target: ORL1 receptor (Homo sapiens, UniProt P41146); construct: expressed in transfected cells; host or cells: CHO (recombinant CHO-ORL1 cells), membranes; assay: ORL1 receptor binding assay with 3H-nociceptin/orphanin FQ (WGA-SPA beads); settings: c=1 μM test substance; 0.5 nM 3H-nociceptin/orphanin FQ; membranes of recombinant CHO-ORL1 cells
Sequence (P41146 whole entry): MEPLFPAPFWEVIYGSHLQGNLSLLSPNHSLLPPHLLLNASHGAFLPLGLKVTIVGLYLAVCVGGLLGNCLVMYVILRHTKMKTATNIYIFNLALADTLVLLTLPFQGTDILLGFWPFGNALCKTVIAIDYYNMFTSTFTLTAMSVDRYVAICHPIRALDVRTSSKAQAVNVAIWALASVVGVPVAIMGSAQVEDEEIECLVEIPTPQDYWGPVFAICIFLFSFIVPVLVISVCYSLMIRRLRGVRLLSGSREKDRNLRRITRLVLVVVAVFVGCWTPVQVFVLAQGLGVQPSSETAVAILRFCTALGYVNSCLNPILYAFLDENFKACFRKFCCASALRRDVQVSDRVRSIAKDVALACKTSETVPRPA
Overview of reported inhibition at 1 µM across a group of compounds:

# Compound, Unit text, inhibition at 1 µM
rows = [
    ("CN(CCCN1CCC(c2cccs2)(N(C)C)CC1)C(=O)CCc1cn(C)c2ccccc12", "%", 35),
    ("CN(C)C1(c2ccccc2)CCN(C(=O)CCNC(=O)c2ccc3cc[nH]c3c2)CC1", "%", 57),
    ("CN(C)C1(c2cccs2)CCN(C(=O)CC(NCc2c[nH]c3ccc(Br)cc23)c2ccccc2)CC1 (stereo not shown)", "%", 55),
    ("CN(C)C1(c2cccs2)CCN(CCNCc2ccc3[nH]ccc3c2)CC1", "%", 90),
]
